// reported ratio over background for each item listed
# tgt: T1, soluble human insulin receptor-immunoglobulin heavy chain chimera (human, UniProt P06213 28-956, limits assumed)
# T1 construct: extracellular domain; also called sIR-Fc; IR (prepared according to Bass et al., 1996); not shown: immunoglobulin heavy chain constant domains (Bass et al., 1996)
# assay.overview: phage ELISA
quantity.kind: ratio over background (ratio)

* VGRASGFPENFYDWFGRQLSLQSGEQ (on phage) [M2CA-4-H6-IGFR] | 0.7
* GNGDGMFYQLLSLLVGRDMHV (on phage) [20E2B-3-C2-IGFR] | 0.6
* TLDGGSFEEQFYDWFVRQLSYRTNPD (on phage) [H2CA-4-G11-IGFR] | 2.5
* NSRDGGFYLQLERLLGFPVTG (on phage) [20E2B-3-D4-IGFR] | 0.8
* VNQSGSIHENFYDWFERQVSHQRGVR (on phage) [H2CA-4-F10-IGFR] | 1
* FYVQQWGHENFYDWFDRQVSQSGGAG (on phage) [H2CA-4-F1-IGFR] | 0.9
* AETSVQVGWIRLQSVWPGEHWNTVDPFYHKLSELLRGSGA (on phage) [B6L-4-D7-IR] | 1.4

Reference for the values: patent US20040023887A1
